target: T1, Tilelizumab; test: SPR, Biacore T200; PD1-RFc mobile phase, antibody stationary phase
T1 construct: Biotin-labelled in flow cytometry; also called Tevimbra; Tislelizumab
assay endpoint: Kd (nM)
Answers are plain numbers, in nM.

Request: Dear colleague, please send me the reported Kd for Seq No.5-RFc (PD-1 variant SEQ ID NO: 5 fused to rabbit IgG Fc) (Fc fusion, Signal peptide 1-20 left out; also called variant 4; not shown: rabbit IgG Fc (RFc) of vector pcDNA3.4-RFc) PGWFLDSPDRPWNPPTFSPALLVVTEGDNATFTCSFSNTSESFVLNWYRMSPSNQTDKLAAFPEDFRNCTQDCRFRVTQLPNGRDFHMSVVRARRNDSGTYLCGAISLSTPVWIKESLRAELRVTERRAEVPTAH when you can.
Response: 0.567
